Tested on: U251
test.protocol: NCI 60-cell line screen
Assay type: cell-based, human
measurement.conditions: Homo sapiens, U-251
pIC50: −log10 of the molar value.
pIC50 for assorted compounds
measure.name: pIC50

> print(dat)
                              line.notation  value.observed
1  O=C(CNc1ccc([N+](=O)[O-])cc1)Nc1nc2ccccc2s1            5.77
2  O=C(CN1CCN(CC(=O)Nc2nc3ccccc3s2)CC1)Nc1ccc([N+](=O)[O-])cc1            5.46

* * *

inhibition at 100 µM for assorted molecules
assayed.target: PI3Kγ enzyme (Homo sapiens, UniProt P48736)
Sequence (P48736 whole entry): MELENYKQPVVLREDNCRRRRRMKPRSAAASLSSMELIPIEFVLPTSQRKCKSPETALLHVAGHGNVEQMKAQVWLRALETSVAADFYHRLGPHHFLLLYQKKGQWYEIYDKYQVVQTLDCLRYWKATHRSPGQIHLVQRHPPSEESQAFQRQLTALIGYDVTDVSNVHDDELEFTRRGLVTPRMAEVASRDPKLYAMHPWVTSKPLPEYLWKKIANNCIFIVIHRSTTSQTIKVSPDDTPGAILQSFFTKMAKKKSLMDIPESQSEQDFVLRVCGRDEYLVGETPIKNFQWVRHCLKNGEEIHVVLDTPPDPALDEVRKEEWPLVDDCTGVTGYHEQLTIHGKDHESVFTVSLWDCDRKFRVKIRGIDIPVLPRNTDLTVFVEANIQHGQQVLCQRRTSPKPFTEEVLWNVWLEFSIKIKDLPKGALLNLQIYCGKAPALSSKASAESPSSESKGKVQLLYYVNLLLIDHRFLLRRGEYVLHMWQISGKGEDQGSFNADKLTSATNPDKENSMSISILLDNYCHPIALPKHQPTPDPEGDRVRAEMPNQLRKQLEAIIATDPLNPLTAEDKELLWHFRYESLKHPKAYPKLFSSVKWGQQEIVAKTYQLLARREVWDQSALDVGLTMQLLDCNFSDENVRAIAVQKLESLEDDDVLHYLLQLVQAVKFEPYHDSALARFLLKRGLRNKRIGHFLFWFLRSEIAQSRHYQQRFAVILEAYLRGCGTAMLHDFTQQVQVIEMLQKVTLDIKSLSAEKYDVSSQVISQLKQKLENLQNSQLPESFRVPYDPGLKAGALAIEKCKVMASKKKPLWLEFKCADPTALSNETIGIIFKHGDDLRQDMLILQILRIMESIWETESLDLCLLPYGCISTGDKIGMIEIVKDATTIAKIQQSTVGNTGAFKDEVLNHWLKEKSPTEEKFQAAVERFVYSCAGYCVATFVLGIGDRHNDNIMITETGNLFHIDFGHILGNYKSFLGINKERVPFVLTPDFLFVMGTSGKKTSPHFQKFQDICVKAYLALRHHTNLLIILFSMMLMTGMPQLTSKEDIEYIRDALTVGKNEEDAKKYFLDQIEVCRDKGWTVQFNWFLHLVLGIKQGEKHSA
test.protocol: Adapta universal kinase assay, anti-PI3Kγ activity
Assay type: biochemical
measurement.conditions: read-out: % of inhibition against PI3Kγ enzyme, point 2
measure.name: inhibition at 100 µM

> print(dat)
                               line.notation          measure.name  value.observed
 1  O=C(CNc1ccc([N+](=O)[O-])cc1)Nc1nc2ccccc2s1  inhibition at 100 µM              0%
 2  O=C(CN1CCN(CC(=O)Nc2nc3ccccc3s2)CC1)Nc1ccc([N+](=O)[O-])cc1  inhibition at 100 µM             24%
 3             O=C(CNC1CCCCC1)Nc1nc2ccccc2s1  inhibition at 100 µM             40%
 4    O=C(CN1CCN(c2ccccn2)CC1)Nc1nc2ccccc2s1  inhibition at 100 µM              8%
 5          O=C(CNc1ccc(F)cc1)Nc1nc2ccccc2s1  inhibition at 100 µM             28%
 6          O=C(CNc1ccc(I)cc1)Nc1nc2ccccc2s1  inhibition at 100 µM              0%
 7  N=C(N)NS(=O)(=O)c1ccc(NCC(=O)Nc2nc3ccccc3s2)cc1  inhibition at 100 µM             22%
 8  O=C(CN1CCN(c2ccc([N+](=O)[O-])cc2)CC1)Nc1nc2ccccc2s1  inhibition at 100 µM              0%
 9   O=C(CN1CCN(c2ccccc2O)CC1)Nc1nc2ccccc2s1  inhibition at 100 µM              4%
10  O=C(CN1CCN(c2cccc(O)c2)CC1)Nc1nc2ccccc2s1  inhibition at 100 µM              0%

* * *

IC50 for assorted molecules
System: NCI-H460
test.protocol: NCI 60-cell line screen
Assay type: cell-based, human
measurement.conditions: Homo sapiens, NCI-H460
measure.name: IC50 (nM)

> print(dat)
                                   molecule  assayed.target  value.observed
1  O=C(CNc1ccc([N+](=O)[O-])cc1)Nc1nc2ccccc2s1 [OMS5]        NCI-H460             500
2  O=C(CN1CCN(CC(=O)Nc2nc3ccccc3s2)CC1)Nc1ccc([N+](=O)[O-])cc1 [OMS14]        NCI-H460            1800

* * *

inhibition at 100 µM for assorted compounds
assayed.target: PI3Kγ enzyme (Homo sapiens, UniProt P48736)
test.protocol: Adapta universal kinase assay, anti-PI3Kγ activity
Assay type: biochemical
measurement.conditions: read-out: % of inhibition against PI3Kγ enzyme, point 2
measure.name: inhibition at 100 µM (%)

> print(dat)
                                   compound          measure.name  value.observed
1  O=C(CN1CCN(CC(=O)Nc2nc3ccccc3s2)CC1)Nc1nc2ccccc2s1 [OMS16]  inhibition at 100 µM               0
2       O=C(CN1CCOCC1)Nc1nc2ccccc2s1 [OMS9]  inhibition at 100 µM               3
3  NS(=O)(=O)c1ccc(NCC(=O)Nc2nc3ccccc3s2)cc1 [OMS6]  inhibition at 100 µM              22
4  O=C(CNc1ccc(S(=O)(=O)Nc2ccccn2)cc1)Nc1nc2ccccc2s1 [OMS8]  inhibition at 100 µM               0
